Please respond with reported melting point for every item in the list.

In: Find the recorded melting point belonging to "Nc1cc(Cl)cc(Cl)c1C(=O)NCC1CCCCC1" and report it.
Out: 168 to 171 °C

In: For O=C(O)c1cn2c3c(ccc([N+](=O)[O-])c3c1=O)C1CCCCC12 (configuration not stated) then?
Out: 251 to 253 °C

In: For "COC1=C(OC)C(=O)c2c(cccc2S(=O)(=O)c2ccccc2)C1=O" then?
Out: 141 to 142 °C

In: For "CC(C)(C)c1nc(O)cc(OC(F)F)n1" then?
Out: 156 °C

In: For "CC(C)c1cccc(C(C)C)c1NC(=O)CCl" then?
Out: 146 to 148 °C

In: For COC(=O)C1Cc2cccc(OC)c2N1S(=O)(=O)c1ccc(I)cc1 (configuration not stated) then?
Out: 161 °C

In: For OC1(c2ccc(-c3ccccc3)cc2)CN2CCC1CC2 (configuration not stated) then?
Out: 165 to 166 °C

In: For "CCCOc1ccccc1C(=O)Nc1ncccc1C(N)=O" then?
Out: 181 to 184 °C

In: For "CC(C)S(=O)(=O)c1cc(O)c(N)c(C#N)c1" then?
Out: 166 to 167 °C

In: For "Cn1c(Nc2c(Cl)cccc2Cl)nc2ccc3c(c21)C(=O)NC(C)(C)N3" then?
Out: 238 to 239 °C

In: For "O=c1ccn(-c2cccc(C(F)(F)F)c2)nc1-c1cn(C(c2ccccc2)(c2ccccc2)c2ccccc2)nc1-c1ccccc1" then?
Out: 216 to 218 °C

In: For "CN1CCN(CCO)C1=Nc1ccccc1N1CCOCC1" then?
Out: 129 to 131 °C

In: For "CC(C)(C)c1ccc(Nc2cccc(Br)n2)c(N)c1" then?
Out: 125 to 128 °C

In: For "O=C(O)c1cccc2[nH]c(=O)c(-c3csc(-c4ccncc4)n3)cc12" then?
Out: > 250 °C

In: For "CCCN(CCC)S(=O)(=O)c1cc(C(=O)CCl)ccc1Cl" then?
Out: 76 °C

In: For COc1cccc(NC(=O)NC2N=C(c3ccc(C)cc3)c3ccccc3N(C)C2=O)c1 (configuration not stated) then?
Out: 240 to 242 °C

In: For "COC(C)=CC(=O)Nc1cccc(OC(C)=O)c1" then?
Out: 111 °C

In: For "CS(=O)(=O)NC[C@@H]1CN(c2ccc(N3CCC(O)(CN=[N+]=[N-])CC3)c(F)c2)C(=O)O1" then?
Out: 142 to 144 °C

In: For "Cc1cc(N=C2NCCN2)cc(NS(C)(=O)=O)c1C" then?
Out: 254 to 255 °C

In: For O=S(=O)(c1ccc(Cl)cc1)N1CCCC1c1cccc(F)c1 (racemic) then?
Out: 126 °C

In: For "CC(C)[C@@H]1COC(=O)N1C(=O)CCc1ccccc1" then?
Out: 62 °C

In: For "Clc1cccnc1-c1ccc2[nH]nc(Nc3ncc(CN4CCOCC4)s3)c2c1" then?
Out: 217 °C
